Data origin: patent US10759796B2

biological target: CXCR-4 transfected U87 cell line (U87.CXCR4) (Homo sapiens (Human), UniProt P61073); assay: Intracellular CXCL-12-induced calcium mobilization assay (FLIPR); settings: U87.CXCR4 cells, CXCL-12 25-50 ng/mL; read-out: IC50 CXCL-12 Ca2+ flux U87.CXCR4+
Sequence (P61073 whole entry): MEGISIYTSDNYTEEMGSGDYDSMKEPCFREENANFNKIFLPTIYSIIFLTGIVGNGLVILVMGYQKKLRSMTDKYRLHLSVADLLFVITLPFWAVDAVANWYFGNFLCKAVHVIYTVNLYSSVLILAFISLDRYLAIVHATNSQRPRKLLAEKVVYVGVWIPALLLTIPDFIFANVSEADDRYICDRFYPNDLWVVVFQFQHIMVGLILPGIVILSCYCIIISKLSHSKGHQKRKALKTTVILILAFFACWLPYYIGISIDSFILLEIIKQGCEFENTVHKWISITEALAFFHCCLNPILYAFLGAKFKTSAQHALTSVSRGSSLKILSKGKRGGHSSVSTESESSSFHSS
pIC50: −log10 of the molar value.
property.measured: pIC50

Would you please look over these solved cases?
compound	property.measured	measurement
CCN1CCN(c2cccc3nc([C@H]4CCC[C@@H](c5ncccc5C)N4C)cn23)CC1	pIC50	7.00 to 11.00
CN1C2CCC1CN(c1cccc3nc([C@H]4CCC[C@@H](c5ncccc5Cl)N4C)c(CO)n13)C2	pIC50	7.00 to 11.00
Cc1cccnc1[C@@H]1CCC[C@H](c2nc3cccc(N4CCN5CCCC5C4)n3c2Cl)N1C (stereo partly shown)	pIC50	7.00 to 11.00

Enquiry: I am curious: what pIC50 value has been reported for Cc1cccnc1[C@@H]1CCC[C@H](c2nc3ccccn3c2C=C2CCN(C)CC2)N1C ?
Return: 6.00 to 7.00

Enquiry: Subsequent entry: Cc1cccnc1[C@@H]1CCC[C@H](c2cn3c(N4CCN(C5CCOCC5)CC4)cccc3n2)N1C
Return: 6.00 to 7.00

Enquiry: Now the compound Cc1cccnc1[C@@H]1CCC[C@H](c2cn3ccccc3n2)N1CCCCN
Return: 6.00 to 7.00

Enquiry: Moving on to Cc1cccnc1[C@@H]1CCC[C@H](c2cn3ccccc3n2)N1CCn1cccn1
Return: 7.00 to 11.00

Enquiry: Then what about the compound CCOCc1c([C@H]2CCC[C@@H](c3ncccc3Cl)N2C)nc2cccc(N3CCN(C)CC3)n12 ?
Return: 7.00 to 11.00

Enquiry: Quick one: Cc1cccnc1[C@H]1CCC[C@@H](c2nc3ccccn3c2CCCN(C)C)N1C (stereo in doubt)
Return: 6.00 to 7.00

Enquiry: What would you report for Cc1cccnc1[C@@H]1CCC[C@H](c2nc3cccc(N4CCN(C)CC4)n3c2Br)N1C(C)C ?
Return: 7.00 to 11.00

Enquiry: Same thing, different compound: COc1cccnc1[C@@H]1CCC[C@H](c2cn3c(N4CCNC5(CC5)C4)cccc3n2)N1
Return: ≤ 6.00

Enquiry: Then what about the compound CN(C)C1CCN(c2cccc3nc([C@H]4CCC[C@@H](c5ncccc5Cl)N4C)cn23)CC1 ?
Return: 7.00 to 11.00
